For each of the compounds below, state its inhibition at 25 µM.
Target: GAβ-dependent amyloid fibril formation (Human Aβ1-40 + GM1-containing liposome) (Homo sapiens, UniProt P05067)
Construct: Human Aβ1-40 (cat. #4307-v, prepared by Peptide Institute); purchased Peptide Institute 4307-v
Sequence (P05067 672-711 limits assumed): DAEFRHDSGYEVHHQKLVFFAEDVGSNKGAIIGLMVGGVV
Assay: Thioflavin T (ThT) assay of GAβ-dependent amyloid fibril formation (Aβ1-40 with GM1-containing liposome)
Type: biochemical
Details: inhibition rate against amyloid fibril formation, final concentration of the compound 25 μM; read-out: Inhibitory activity ABC evaluation

Examples with their reported inhibition at 25 µM follow.
- O=C(N[C@@H](CO)c1nc(-c2c[nH]c3ccc(Cl)cc23)no1)c1ccc(Cl)cn1 [Compound 254]: 40 to 80%
- COc1ccc(-c2noc(CCC(=O)Nc3cc(Cl)ccn3)n2)cc1 [Compound 4]: < 40%
- O=C(N[C@@H](CO)c1nc(-c2c[nH]c3ccc(Cl)cc23)no1)c1ccc(N2CCCC2)cc1 [Compound 253]: 40 to 80%
- O=C(N[C@@H](CO)c1nc(-c2ccc(C(F)(F)F)cc2)no1)c1ccc(F)nc1 [Compound 157]: > 80%
- O=C(N[C@@H](CO)c1nc(-c2nccc3ccccc23)no1)c1ccc(F)cc1 [Compound 226]: 40 to 80%
- O=C(N[C@@H](CO)c1nc(-c2ccc(F)cc2)no1)c1ccc(F)cc1 [Compound 172]: > 80%
- CCCN(C(=O)CCc1nc(-c2ccc(OC)cc2)no1)c1cccc(Cl)c1 [Compound 2]: 40 to 80%
- O=C(N[C@@H](CO)c1nc(-c2ccc(C(F)(F)F)cc2)no1)c1cn2ccccc2n1 [Compound 240]: < 40%
- O=C(N[C@@H](CO)c1nc(-c2c[nH]c3ccc(Cl)cc23)no1)c1ccc(Cl)cc1F [Compound 252]: 40 to 80%
- O=C(N[C@@H](CO)c1nc(-c2ccc(C(F)(F)F)cc2)no1)c1c(F)cccc1F [Compound 197]: 40 to 80%

Hi! Can you tell me inhibition at 25 µM for each of these compounds?
1. O=C(N[C@@H](CO)c1nc(-c2ccc(CF)cc2)no1)c1ccccc1 [Compound 162]
2. O=C(c1ccc(Cl)cc1)N1CCC[C@H]1c1nc(-c2ccc(OC(F)(F)F)cc2)no1 [Compound 55]
3. O=C(NC(CO)c1nc(-c2ccc(C(F)(F)F)cc2)no1)c1cc2ccccc2[nH]1 (centres unmarked) [Compound 182]
4. COc1ccc(-c2noc([C@@H](N)Cc3c[nH]c4ccccc34)n2)cc1 [Compound 18]
5. O=C(N[C@@H](CO)c1nc(-c2cn(CCO)c3ccccc23)no1)c1ccc(F)cc1 [Compound 264]
6. O=C(Cc1c[nH]c2ccccc12)NC(CO)c1nc(-c2ccc(C(F)(F)F)cc2)no1 (centres unmarked) [Compound 185]
7. O=C1CC(c2nc(-c3ccc(OC(F)(F)F)cc3)no2)CN1c1ccc(Cl)cc1 (centres unmarked) [Compound 23]

RESULT:
1: 40 to 80%; 2: 40 to 80%; 3: 40 to 80%; 4: > 80%; 5: 40 to 80%; 6: 40 to 80%; 7: 40 to 80%
